The reported measurements were obtained from PubChem BioAssay AID449762.

test: M. tuberculosis growth inhibition, HTS (AID 449762);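 note: bacterial growth assessed after seven days of incubation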; conditions: M. tuberculosis H37Rv growth inhibition, 7H9 media; at 25 µM; hits give high values
About 1,900 (0.58%) of roughly 330,000 compounds were called active. About 4% were inconclusive and are not listed. Only a sample is shown. Entries with a potency or affinity are not part of this list.
Consider the following compounds and their measured inhibition readings.
Give the quantity in %, number only.

# compound, assay-value
measured = [
    ("CCOC(=O)N1CCN(C(=O)C2CCC(=O)N(CCCc3ccccc3)C2)CC1 (stereo unspecified)", -4.71),
]

Inquiry: Which measured inhibition value corresponds to CCc1nnc(N/N=C/c2ccccc2F)n1N ?
Reply text: 31.3

Inquiry: Recorded inhibition for CC(=O)NCC1CCCN(C(=O)c2ccc(OC3CCN(Cc4ccccn4)CC3)cc2)C1 (stereo unspecified) , please?
Reply text: 8.85

Inquiry: Could you tell me which inhibition is on file for Cc1nn(-c2ccc([N+](=O)[O-])cc2)c2c1C(c1ccc(OC(F)F)cc1)N1C(=N2)C(=O)Nc2ccccc21 (stereo unspecified) ?
Reply text: 65.4

Inquiry: For the compound shown here, COC(=O)C1=C(c2ccc(F)cc2OCc2ccccc2)C[C@@H]2CC[C@H]1N2C(=O)NCc1ccc(C)cc1 , give the reported inhibition.
Reply text: 11.4

* * *

Parameter inhibition: see the listing below.
experiment: M. tuberculosis growth inhibition, HTS (AID 449762);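 note: bacterial growth assessed after seven days of incubation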; conditions: M. tuberculosis H37Rv growth inhibition, 7H9 media; at 25 µM; hits give high values
In all, about 330,000 compounds went through this assay and about 1,900 (0.58%) were called active. Another 4% or so got no clear call; they are omitted. These entries were drawn from the full list. Potency and affinity values are given separately.
Just the number please, in %, no unit attached.

// solved cases for inhibition follow
# compound, unit-tag, inhibition
records = [
    ("CN(C)c1ccc(/C=C/c2cc[n+](C)cc2)cc1", "%", 7.78),
    ("Cc1cc(N2CCCCC2)n2ncc(-c3ccc(Cl)cc3)c2n1", "%", 94.8),
    ("O=C(NCC1CCCO1)C1CC(=O)N(C2CCCCCC2)C1 (stereo not drawn)", "%", 5.65),
    ("COc1ccc2oc(C(=O)Nc3nc4ccccc4[nH]3)c(C)c2c1", "%", 25.6),
]

Inquiry: Any idea what inhibition was measured for Cc1ncc([N+](=O)[O-])n1CC(=O)NC1CCCCCC1 ?
Reply text: 0.9

Inquiry: Please look up its inhibition: CCOC(=O)c1ccc(COC(=O)CNC(=O)CNC(=O)Cc2ccccc2)cc1
Reply text: -12.4

Inquiry: inhibition lookup needed for Cc1c(C(=O)Nc2nc3ccccc3[nH]2)oc2ccc(Br)cc12 , thanks.
Reply text: 64.1

* * *

assay: M. tuberculosis growth inhibition, HTS (AID 449762);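 note: bacterial growth assessed after seven days of incubation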; conditions: M. tuberculosis H37Rv growth inhibition, 7H9 media; at 25 µM; hits give high values
The whole screen tested about 330,000 compounds, of which about 1,900 (0.58%) were called active. Not shown: some 4% with an inconclusive outcome. Not all results are given here. Measured potencies and affinities stand elsewhere.
Measured inhibition of individual entries
Respond numerically; units are % and should not be typed.

Inquiry: // inhibition lookup, key: Cc1ccc(C(=O)N/N=c2\sc3ccccc3n2C)cc1
Reply text: 10.5

Inquiry: I'd like to know its inhibition. The molecule in question is COc1ccc(C2=CN(Cc3ccccc3)C(c3ccccc3)CC2=O)cc1 (stereo unspecified)
Reply text: -2.25

Inquiry: For the molecule COc1ccc(COc2cc(-c3cccc(OC)c3)nc3ccc(NC(=O)c4ccc(Cl)cc4)cc23)cc1 , what inhibition is on record?
Reply text: 56.2

Inquiry: Look up inhibition for this molecule: O=C(c1cc([N+](=O)[O-])ccc1N1CCOCC1)N1CCN(S(=O)(=O)c2ccc(F)cc2)CC1
Reply text: -2.15

Inquiry: Please report the recorded inhibition for Cc1nn(C)cc1/C=N/NC(=O)C(C)(C)Oc1ccc(Cl)cc1 .
Reply text: -2.26

Inquiry: # input molecule: Brc1ccc(-c2nc(-c3ccncc3)no2)cc1 ; wanted: its inhibition
Reply text: 1.44

Inquiry: Report inhibition for CCc1ccccc1N(CC(=O)NC1CCCCC1)C(=O)CNC(=O)c1ccco1 please.
Reply text: 2.96

Inquiry: What does the data say about its inhibition? Entry: CC(=O)C1=NN(c2ccccc2)C(c2cccs2)N1c1ccccc1 (stereo unspecified)
Reply text: -3.16

Inquiry: Query: inhibition; subject: O=[N+]([O-])c1cccc(-c2nc(-c3ccncc3)no2)c1
Reply text: -2
